Taken from patent US20150132307A1.

Target: T1, Biotinylated human soluble TWEAK (amino acids 99-249 of SEQ ID NO: 68) (human, UniProt O43508 99-249, biotinylated)
T1 construct: also called Human TWEAK
T1 sequence: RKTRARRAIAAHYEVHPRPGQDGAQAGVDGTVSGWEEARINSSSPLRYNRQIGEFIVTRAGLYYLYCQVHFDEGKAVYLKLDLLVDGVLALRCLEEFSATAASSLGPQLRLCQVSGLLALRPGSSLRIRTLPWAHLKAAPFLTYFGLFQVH
Experiment: SPR (Biacore), biotinylated soluble TWEAK on streptavidin chip, 25 C
Below, each of the binders is paired with its reported Biacore t/2 diss. [min] 25° C. human value.
Your answer should be a plain number; it is taken to be in min.

| binder | quantitative.result |
| --- | --- |
| Humanized <TWEAK> 305- antibody 32 (antibody, V domains shown) VH: EVQLLESGGGLVQPGGSLRLSCAASGFDFSTYYMSWVRQAPGKGLEWVSTVYVRQGTTYYASWLNGRFTISRDNSKNTLDLQMNSLRAEDTAVYYCAKGGYNYDDAFVIWGQGTLVTVSS VL: DIQMTQSPSTLSASVGDRVTITCQASQNIYSNLAWYQQKPGKAPKLLIYTASYLASGVPSRFSGSGSGTEFTLTISSLQPDDFATYYCQTAYYNSRPDTVAFGGGTKVEIK | 67 |
| Humanized <TWEAK> 305- antibody 29 (antibody, V domains shown) VH: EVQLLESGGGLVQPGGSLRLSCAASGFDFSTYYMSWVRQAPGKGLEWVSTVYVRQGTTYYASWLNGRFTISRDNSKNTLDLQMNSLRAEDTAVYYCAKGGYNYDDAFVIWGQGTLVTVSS VL: DIQMTQSPSSVSASVGDRVTITCQASQNIYSNLAWYQQKPGKAPKLLIYTASYLASGVPSRFSGSGSGTDYTLTISSLQPEDFATYYCQTAYYNSRPDTVAFGGGTKVEIK | 146 |
| Humanized <TWEAK> 305- antibody 28 (antibody, V domains shown) VH: EVQLLESGGGLVQPGGSLTLSCAASGFDFSTYYMSWVRQAPGKGLEWVSTVYVRQGTTYYASWLNGRFTISRDNSKNTLYLQMNSLRAEDTAVYYCAKGGYNYDDAFVIWGQGTLVTVSS VL: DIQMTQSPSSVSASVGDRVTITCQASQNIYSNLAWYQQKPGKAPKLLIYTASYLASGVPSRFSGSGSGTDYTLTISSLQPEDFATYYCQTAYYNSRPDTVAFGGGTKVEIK | 87 |

Any idea what Biacore t/2 diss. [min] 25° C. human was measured for Humanized <TWEAK> 305- antibody 31 (antibody, V domains shown) VH: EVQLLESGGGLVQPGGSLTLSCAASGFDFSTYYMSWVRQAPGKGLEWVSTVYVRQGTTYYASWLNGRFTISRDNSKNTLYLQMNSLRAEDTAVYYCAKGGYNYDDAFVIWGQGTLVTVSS VL: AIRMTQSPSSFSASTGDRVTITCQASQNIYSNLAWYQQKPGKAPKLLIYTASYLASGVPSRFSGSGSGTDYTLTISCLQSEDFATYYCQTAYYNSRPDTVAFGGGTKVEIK ?
115

For the binder Humanized <TWEAK> 305- antibody 27 (antibody, V domains shown) VH: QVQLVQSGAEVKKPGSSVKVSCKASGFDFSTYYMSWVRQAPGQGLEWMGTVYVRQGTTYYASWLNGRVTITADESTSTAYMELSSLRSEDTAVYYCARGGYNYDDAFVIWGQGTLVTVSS VL: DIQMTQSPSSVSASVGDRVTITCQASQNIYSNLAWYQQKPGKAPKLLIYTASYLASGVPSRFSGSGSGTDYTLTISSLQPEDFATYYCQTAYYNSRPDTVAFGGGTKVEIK , what Biacore t/2 diss. [min] 25° C. human is on record?
110

Sample Humanized <TWEAK> 305- antibody 30 (antibody, V domains shown) VH: EVQLLESGGGLVQPGGSLRLSCAASGFDFSTYYMSWVRQAPGKGLEWVSTVYVRQGTTYYASWLNGRFTISRDNSKNTLYLQMNSLTAEDTAVYYCAKGGYNYDDAFVIWGQGTLVTVSS VL: DIQMTQSPSSVSASVGDRVTITCQASQNIYSNLAWYQQKPGKAPKLLIYTASYLASGVPSRFSGSGSGTDFTLTISSLQPEDFATYYCQTAYYNSRPDTVAFGGGTKVEIK — what was its Biacore t/2 diss. [min] 25° C. human?
50

If you can, please state the reported Biacore t/2 diss. [min] 25° C. human value of Humanized <TWEAK> 305- antibody 33 (antibody, V domains shown) VH: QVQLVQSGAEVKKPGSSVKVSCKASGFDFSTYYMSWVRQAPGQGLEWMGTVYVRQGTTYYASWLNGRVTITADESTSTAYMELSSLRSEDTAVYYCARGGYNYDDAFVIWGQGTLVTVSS VL: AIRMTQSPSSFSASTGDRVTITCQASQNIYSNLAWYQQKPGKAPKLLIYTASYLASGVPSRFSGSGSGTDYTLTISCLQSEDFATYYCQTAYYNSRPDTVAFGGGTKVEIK .
127

Would you kindly share the measured Biacore t/2 diss. [min] 25° C. human for Humanized <TWEAK> 305- antibody 34 (antibody, V domains shown) VH: EVQLLESGGGLVQPGGSLRLSCAASGFDFSTYYMSWVRQAPGKGLEWVSTVYVRQGTTYYASWLNGRFTISRDNSKNTLYLQMNSLRAEDTAVYYCAKGGYNYDDAFVIWGQGTLVTVSS VL: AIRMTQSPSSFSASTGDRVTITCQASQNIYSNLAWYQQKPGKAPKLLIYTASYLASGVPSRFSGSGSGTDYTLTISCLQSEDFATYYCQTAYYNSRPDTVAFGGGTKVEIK ?
158
